TARGET: Neuropeptide FF receptor 2 (Homo sapiens, UniProt Q9Y5X5)
Sequence (Q9Y5X5 whole entry): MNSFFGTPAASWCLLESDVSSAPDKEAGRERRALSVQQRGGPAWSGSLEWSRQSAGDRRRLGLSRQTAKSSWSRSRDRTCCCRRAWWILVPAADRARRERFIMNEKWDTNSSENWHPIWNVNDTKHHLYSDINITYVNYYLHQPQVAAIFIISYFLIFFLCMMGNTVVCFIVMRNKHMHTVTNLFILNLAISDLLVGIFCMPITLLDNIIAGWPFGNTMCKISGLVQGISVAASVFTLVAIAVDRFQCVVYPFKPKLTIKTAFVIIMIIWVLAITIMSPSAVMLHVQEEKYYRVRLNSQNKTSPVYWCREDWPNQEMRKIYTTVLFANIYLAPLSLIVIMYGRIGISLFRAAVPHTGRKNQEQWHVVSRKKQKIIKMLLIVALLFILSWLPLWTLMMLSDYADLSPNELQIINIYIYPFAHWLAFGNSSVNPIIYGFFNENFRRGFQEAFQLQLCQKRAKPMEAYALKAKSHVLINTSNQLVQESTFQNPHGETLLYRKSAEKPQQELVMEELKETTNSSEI
MEASUREMENT_NOTES: Displacement of [3H]FFRF-NH2 from human flag-tagged NPFF2 receptor expressed in CHO cells at 500 nM by scintillation counting
Type: cell-based
RECORDED_METRIC: inhibition (%)

I. N=C(N)NCCC[C@H](NC(=O)c1ccncc1)C(=O)N[C@@H](Cc1ccccc1)C(N)=O
II. N=C(N)NCCC[C@@H](NC(=O)Cc1ccccc1)C(=O)N[C@@H](Cc1ccccc1)C(N)=O
Could you check which of I and II has a smaller value for inhibition? Write down the label attached to your selection.
I
(I: 2%, II: 30%)

###

pKi: −log10 of the molar value.
Consider compounds characterized by their pKi with Neuropeptide FF receptor 1 (Homo sapiens).
RECORDED_METRIC: pKi

Worked set:
1. NC(=O)[C@H](Cc1ccccc1)NC(=O)[C@H](CCCN=C(N)N)NC(=O)c1cccc2ccccc12    7.06
2. NC(=O)[C@@H](Cc1ccccc1)NC(=O)[C@@H](CCCN=C(N)N)NC(=O)c1ccc(-c2ccccc2)cc1    6.78
3. NC(=O)[C@@H](Cc1ccccc1)NC(=O)[C@@H](CCCN=C(N)N)NC(=O)c1ccccc1-c1ccccc1    8.30
4. N=C(N)NCCC[C@@H](NC(=O)C(c1ccccc1)c1ccccc1)C(=O)N[C@H](Cc1ccccc1)C(N)=O    7.82
5. NC(=O)[C@H](Cc1ccccc1)NC(=O)[C@H](CCCN=C(N)N)NC(=O)C12CC3CC(CC(C3)C1)C2    7.66

I. N=C(N)NCCC[C@@H](NC(=O)/C=C/c1ccccc1)C(=O)N[C@@H](Cc1ccccc1)C(N)=O
II. NC(=O)[C@H](Cc1ccccc1)NC(=O)[C@@H](CCCN=C(N)N)NC(=O)c1ccc(-c2ccccc2)cc1
Param pair: I , II . Output: the one whose pKi is numerically greater. Write down the label attached to your selection.
I

1. NC(=O)[C@H](Cc1ccccc1)NC(=O)[C@H](CCCN=C(N)N)NC(=O)c1ccccc1-c1ccccc1
2. N=C(N)NCCC[C@H](NC(=O)c1ccccc1)C(=O)N[C@@H](Cc1ccccc1)C(N)=O
Could you check which of 1 and 2 has a smaller value for pKi? Write down the label attached to your selection.
2

1. NC(=O)[C@@H](Cc1ccccc1)NC(=O)[C@@H](CCCN=C(N)N)NC(=O)C12CC3CC(CC(C3)C1)C2
2. N=C(N)NCCC[C@@H](NC(=O)/C=C/c1ccccc1)C(=O)N[C@H](Cc1ccccc1)C(N)=O
Could you check which of 1 and 2 has a smaller value for pKi? Write down the label attached to your selection.
2

###

TARGET: Neuropeptide FF receptor 1 (Homo sapiens, UniProt Q9GZQ6)
Sequence (Q9GZQ6 whole entry): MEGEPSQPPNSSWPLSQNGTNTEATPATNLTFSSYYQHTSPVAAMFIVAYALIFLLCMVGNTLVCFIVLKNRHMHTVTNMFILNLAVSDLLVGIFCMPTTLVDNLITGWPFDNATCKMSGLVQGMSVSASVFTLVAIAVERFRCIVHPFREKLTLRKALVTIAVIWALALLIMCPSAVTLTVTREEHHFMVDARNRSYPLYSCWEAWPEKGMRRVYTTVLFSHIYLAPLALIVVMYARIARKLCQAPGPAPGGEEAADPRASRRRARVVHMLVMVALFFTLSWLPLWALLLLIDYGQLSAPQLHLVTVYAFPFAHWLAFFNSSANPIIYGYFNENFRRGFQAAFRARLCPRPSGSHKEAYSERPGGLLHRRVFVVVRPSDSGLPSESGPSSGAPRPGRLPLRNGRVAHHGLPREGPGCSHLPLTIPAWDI
MEASUREMENT_NOTES: Displacement of [3H]FFRF-NH2 from human flag-tagged NPFF1 receptor expressed in CHO cells at 5 uM by scintillation counting
Assay type: cell-based
RECORDED_METRIC: inhibition (%)

Worked set:
1. N=C(N)NCCC[C@H](NC(=O)c1ccc(Cl)cc1Cl)C(=O)N[C@@H](Cc1ccccc1)C(N)=O    75
2. N=C(N)NCCC[C@H](NC(=O)CC(c1ccccc1)c1ccccc1)C(=O)N[C@@H](Cc1ccccc1)C(N)=O    89

A. N=C(N)NCCC[C@H](NC(=O)c1cccc(C(=O)c2ccccc2)c1)C(=O)N[C@@H](Cc1ccccc1)C(N)=O
B. N=C(N)NCCC[C@H](NC(=O)/C=C/c1cccnc1)C(=O)N[C@@H](Cc1ccccc1)C(N)=O
Param pair: A , B . Output: the one whose inhibition is numerically greater. Write down the label attached to your selection.
A

###

TARGET: Neuropeptide FF receptor 2 (Homo sapiens, UniProt Q9Y5X5)
MEASUREMENT_NOTES: Displacement of [3H]FFRF-NH2 from human flag-tagged NPFF2 receptor expressed in CHO cells at 5 uM by scintillation counting
Format: cell-based
RECORDED_METRIC: inhibition (%)

1) N=C(N)NCCC[C@H](NC(=O)Cc1ccccc1Cl)C(=O)N[C@@H](Cc1ccccc1)C(N)=O    60

1. N=C(N)NCCC[C@@H](NC(=O)c1ccccc1-c1ccccc1)C(=O)N[C@@H](Cc1ccccc1)C(N)=O
2. N=C(N)NCCC[C@@H](NC(=O)c1ccc(-c2ccccc2)cc1)C(=O)N[C@@H](Cc1ccccc1)C(N)=O
3. COc1ccc(C(=O)N[C@@H](CCCNC(=N)N)C(=O)N[C@@H](Cc2ccccc2)C(N)=O)cc1
List from greatest to least inhibition. Answer by listing the labels in the requested order.
1, 2, 3
(1: 90%, 2: 57%, 3: 21%)

###

TARGET: Neuropeptide FF receptor 2 (Homo sapiens)
MEASUREMENT_NOTES: Displacement of [3H]FFRF-NH2 from human flag-tagged NPFF2 receptor expressed in CHO cells at 5 uM by scintillation counting
Assay type: cell-based
RECORDED_METRIC: inhibition (%)

Worked set:
1. N=C(N)NCCC[C@H](NC(=O)c1ccccc1)C(=O)N[C@@H](Cc1ccccc1)C(N)=O    92
2. N=C(N)NCCC[C@H](NC(=O)CCN1c2ccccc2Sc2ccccc21)C(=O)N[C@@H](Cc1ccccc1)C(N)=O    59
3. N=C(N)NCCC[C@@H](NC(=O)C12CC3CC(CC(C3)C1)C2)C(=O)N[C@H](Cc1ccccc1)C(N)=O    57
4. N=C(N)NCCC[C@@H](NC(=O)/C=C/c1ccccc1)C(=O)N[C@@H](Cc1ccccc1)C(N)=O    58
5. N=C(N)NCCC[C@H](NC(=O)CCC(=O)O)C(=O)N[C@@H](Cc1ccccc1)C(N)=O    20
6. N=C(N)NCCC[C@H](NC(=O)Cc1ccccc1O)C(=O)N[C@@H](Cc1ccccc1)C(N)=O    37
7. CCCCCCCCCCC(=O)N[C@@H](CCCNC(=N)N)C(=O)N[C@@H](Cc1ccccc1)C(N)=O    33
8. N=C(N)NCCC[C@@H](NC(=O)c1cccc(-c2ccccc2)c1)C(=O)N[C@H](Cc1ccccc1)C(N)=O    38
9. N=C(N)NCCC[C@H](NC(=O)Cc1ccc(Cl)cc1)C(=O)N[C@@H](Cc1ccccc1)C(N)=O    63
10. CC(C)(C)C(=O)N[C@@H](CCCNC(=N)N)C(=O)N[C@@H](Cc1ccccc1)C(N)=O    48

P. N=C(N)NCCC[C@H](NC(=O)C12CC3CC(CC(C3)C1)C2)C(=O)N[C@H](Cc1ccccc1)C(N)=O
Q. N=C(N)NCCC[C@H](NC(=O)c1ccccc1-c1ccccc1)C(=O)N[C@@H](Cc1ccccc1)C(N)=O
R. N=C(N)NCCC[C@H](NC(=O)c1ccc(-c2ccccc2)cc1)C(=O)N[C@@H](Cc1ccccc1)C(N)=O
S. N=C(N)NCCC[C@H](NC(=O)C12CC3CC(CC(C3)C1)C2)C(=O)N[C@@H](Cc1ccccc1)C(N)=O
List from greatest to least inhibition. Answer by listing the labels in the requested order.
S, P, Q, R

1. COc1cccc(CC(=O)N[C@@H](CCCNC(=N)N)C(=O)N[C@@H](Cc2ccccc2)C(N)=O)c1
2. N=C(N)NCCC[C@H](NC(=O)c1[nH]c2ccccc2c1-c1ccccc1)C(=O)N[C@@H](Cc1ccccc1)C(N)=O
Param pair: 1 , 2 . Output: the one whose inhibition is numerically greater. Write down the label attached to your selection.
1

###

TARGET: Neuropeptide FF receptor 2 (Homo sapiens, UniProt Q9Y5X5)
RECORDED_METRIC: Ki (nM)

Worked set:
1. N=C(N)NCCC[C@@H](NC(=O)/C=C/c1ccccc1)C(=O)N[C@@H](Cc1ccccc1)C(N)=O    117
2. N=C(N)NCCC[C@@H](NC(=O)/C=C/c1ccccc1)C(=O)N[C@H](Cc1ccccc1)C(N)=O    1620
3. NC(=O)[C@H](Cc1ccccc1)NC(=O)[C@@H](CCCN=C(N)N)NC(=O)c1ccc(-c2ccccc2)cc1    94
4. NC(=O)[C@H](Cc1ccccc1)NC(=O)[C@@H](CCCN=C(N)N)NC(=O)Cc1ccccc1    425

A. N=C(N)NCCC[C@H](NC(=O)c1ccccc1)C(=O)N[C@@H](Cc1ccccc1)C(N)=O
B. NC(=O)[C@H](Cc1ccccc1)NC(=O)[C@H](CCCN=C(N)N)NC(=O)c1ccc2ccccc2n1
Could you check which of A and B has a smaller value for Ki? Write down the label attached to your selection.
B
(B: 47 nM, A: 92 nM)

P. NC(=O)[C@H](Cc1ccccc1)NC(=O)[C@H](CCCN=C(N)N)NC(=O)c1ccccc1-c1ccccc1
Q. NC(=O)[C@@H](Cc1ccccc1)NC(=O)[C@@H](CCCN=C(N)N)NC(=O)C12CC3CC(CC(C3)C1)C2
R. N=C(N)NCCC[C@@H](NC(=O)C12CC3CC(CC(C3)C1)C2)C(=O)N[C@@H](Cc1ccccc1)C(N)=O
Exam item: list the entries in increasing order of Ki. Answer by listing the labels in the requested order.
R, Q, P
(R: 142 nM, Q: 208 nM, P: 590 nM)

P. N=C(N)NCCC[C@@H](NC(=O)C(c1ccccc1)c1ccccc1)C(=O)N[C@H](Cc1ccccc1)C(N)=O
Q. NC(=O)[C@@H](Cc1ccccc1)NC(=O)[C@@H](CCCN=C(N)N)NC(=O)c1ccccc1-c1ccccc1
Param pair: P , Q . Output: the one whose Ki is numerically greater. Write down the label attached to your selection.
P
